system: Escherichia coli TOP10; assay: shrunken log2 fold change of peptide-encoding DNA abundance (4.5 h post-induction vs induction); higher = less antimicrobial activity (less host growth inhibition); conditions: time post-induction: 4.5 h; library: site-saturation at positions 5, 18, 19, 20;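 also: peptides expressed intracellularly from a pBAD plasmid library in pooled LB shake-flask culture, induced with 0.3% L-arabinose, DNA abundance read by NGS, three biological replicates, DESeq2 with apeglm shrinkage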
METRIC_NAME: shrunken log2 fold change
// keep it numeric: no unit symbol after the value

# query: shrunken log2 fold change of entry RRIRKRPPRLPRPRPRPFCCPRP
0.27

Can you handle RRIRTRPPRLPRPRPRPFQGPRP next?
-0.00192

Can you handle RRIRKRPPRLPRPRPRPVLCPRP next?
0.241

Can you handle RRIRQRPPRLPRPRPRPMDWPRP next?
0.0912

Can you handle RRIRHRPPRLPRPRPRPYYCPRP next?
-0.541

Can you handle RRIRDRPPRLPRPRPRPPSDPRP next?
0.251

Can you handle RRIRERPPRLPRPRPRPPLSPRP next?
-0.212

Can you handle RRIRDRPPRLPRPRPRPKNCPRP next?
-0.15

Can you handle RRIRERPPRLPRPRPRPIGKPRP next?
0.133

Can you handle RRIRQRPPRLPRPRPRPFSAPRP next?
-0.0161

Can you handle RRIRPRPPRLPRPRPRPALWPRP next?
0.612

Can you handle RRIRSRPPRLPRPRPRPHCHPRP next?
-0.783

Can you handle RRIRLRPPRLPRPRPRPCDGPRP next?
-0.181

Can you handle RRIRERPPRLPRPRPRPWNWPRP next?
-0.131

Can you handle RRIRNRPPRLPRPRPRPCGRPRP next?
-0.0266

Can you handle RRIRNRPPRLPRPRPRPKLDPRP next?
0.00863

Can you handle RRIRARPPRLPRPRPRPDRIPRP next?
-0.00136

Can you handle RRIRPRPPRLPRPRPRPNQWPRP next?
0.139

Can you handle RRIRIRPPRLPRPRPRPFMEPRP next?
-0.354

Can you handle RRIRQRPPRLPRPRPRPNCWPRP next?
0.0822

Can you handle RRIRCRPPRLPRPRPRPSVKPRP next?
-0.765

Can you handle RRIRERPPRLPRPRPRPNGRPRP next?
-0.033

Can you handle RRIRERPPRLPRPRPRPASAPRP next?
0.33

Can you handle RRIRVRPPRLPRPRPRPDPEPRP next?
-0.0984

Can you handle RRIRHRPPRLPRPRPRPQREPRP next?
-0.0507

Can you handle RRIRCRPPRLPRPRPRPPGQPRP next?
0.494

Can you handle RRIRHRPPRLPRPRPRPVGAPRP next?
3.01

Can you handle RRIRVRPPRLPRPRPRPSCRPRP next?
-0.0227

Can you handle RRIRQRPPRLPRPRPRPPFQPRP next?
0.0422

Can you handle RRIRARPPRLPRPRPRPVFVPRP next?
0.179

Can you handle RRIRNRPPRLPRPRPRPLVKPRP next?
-0.741

Can you handle RRIRCRPPRLPRPRPRPFTVPRP next?
-0.456
